The measurements presented in this section are drawn from patent US20230248850A1.

System: serum proteins (FBS)
assay protocol: in vitro
Assay type: in vitro ADME
condition summary: bovine
property label: fraction unbound at 1 h
Answers are plain numbers.

Reported fraction unbound at 1 h for serum proteins (FBS), given CC1(C)C(/C=C/C=C/C=C/C=C2\N(CCCCS(=O)(=O)O)c3ccc4ccccc4c3C2(C)C)=[N+](CCCCS(=O)(=O)[O-])c2ccc3ccccc3c21 [ICG, indocyanine green] ?
0.055
